TARGET ENTITY: HLA-A*11:01
ASSAY REMARKS: IEDB peptide-MHC binding, purified MHC/competitive/radioactivity; filed as Kd, often an IC50 or EC50 that approximates it; bounds were set here for any values at or beyond the usual limits of such assays
CONDITION LABEL: source organism: Dengue virus 4 Philippines/H241/1956
Attribute: Kd
Give just the number in nM; leave the unit off.

Take a look at these entries with their results.
Ask: Please report the measured Kd for `MTLMKGASK`
Result: 143

Ask: Assign Kd to the following record: `AIKILTGFRK`
Result: 1760

Consider the additional sequence presented here.
Ask: Note down Kd recorded for `RIMQRGLFGK`
Result: 29.5

====

TARGET ENTITY: HLA-A*01:01
ASSAY REMARKS: IEDB peptide-MHC binding, purified MHC/direct/fluorescence; filed as Kd, often an IC50 or EC50 that approximates it; bounds were set here for any values at or beyond the usual limits of such assays
CONDITION LABEL: source organism: Influenza A virus (A/duck/Hokkaido/1130/01(H1N1))
PROPERTY LABEL: Kd

Ask: Give the reported value of Kd for this record: `ELRSRYWAI`
Result: ≥ 20 µM

====

We begin with a simple list: items and their reported pKd.
TARGET ENTITY: HLA-B*40:01
ASSAY REMARKS: IEDB peptide-MHC binding, purified MHC/direct/fluorescence; filed as Kd, often an IC50 or EC50 that approximates it; bounds were set here for any values at or beyond the usual limits of such assays
CONDITION LABEL: source organism: Escherichia coli O157:H7
pKd: −log10 of the molar value.

Ask: Quick one: give measured pKd for `LLKLWIDKV`
Result: ≤ 4.70

New cases:
Ask: Please supply the value of reported pKd for the item `ITAGYNRYY`
Result: ≤ 4.70

====

TARGET ENTITY: HLA-B*27:03
ASSAY REMARKS: IEDB peptide-MHC binding, purified MHC/direct/fluorescence; filed as Kd, often an IC50 or EC50 that approximates it; bounds were set here for any values at or beyond the usual limits of such assays
CONDITION LABEL: source organism: Vibrio parahaemolyticus AQ3810
PROPERTY LABEL: Kd

Ask: Give the measured Kd for `MQGKDFNHL`
Result: ≥ 20 µM

====

TARGET ENTITY: HLA-B*08:01
ASSAY REMARKS: IEDB peptide-MHC binding, purified MHC/direct/fluorescence; filed as Kd, often an IC50 or EC50 that approximates it; bounds were set here for any values at or beyond the usual limits of such assays
CONDITION LABEL: source organism: Giardia lamblia ATCC 50803
PROPERTY LABEL: Kd

Ask: Write Kd of `TTIEDILPK` ; system used: HLA-B*08:01
Result: ≥ 20 µM

Ask: For HLA-B*08:01, give the measured Kd of the entry `RHIAIQVCY`
Result: ≥ 20 µM

Ask: Give the observed Kd of `AEFPVGSTA` for HLA-B*08:01.
Result: ≥ 20 µM

Ask: Fill in: Kd on HLA-B*08:01, entry `YLYLRPYAL`
Result: 0.016 µM

====

TARGET ENTITY: HLA-A*24:03
ASSAY REMARKS: IEDB peptide-MHC binding, purified MHC/direct/fluorescence; filed as Kd, often an IC50 or EC50 that approximates it; bounds were set here for any values at or beyond the usual limits of such assays
CONDITION LABEL: source organism: Vibrio vulnificus
PROPERTY LABEL: Kd

Ask: Find the measured Kd of `STDTRHIPQ` and report it.
Result: ≥ 20 µM
